target.entity: TYK2 (Homo sapiens)
Construct: Degradation of TYK2 in cells was quantitatively measured using Meso Scale Discovery (MSD) technology; endogenous in cells; host or cells: OCI-LY10
Sequence (P29597 whole entry): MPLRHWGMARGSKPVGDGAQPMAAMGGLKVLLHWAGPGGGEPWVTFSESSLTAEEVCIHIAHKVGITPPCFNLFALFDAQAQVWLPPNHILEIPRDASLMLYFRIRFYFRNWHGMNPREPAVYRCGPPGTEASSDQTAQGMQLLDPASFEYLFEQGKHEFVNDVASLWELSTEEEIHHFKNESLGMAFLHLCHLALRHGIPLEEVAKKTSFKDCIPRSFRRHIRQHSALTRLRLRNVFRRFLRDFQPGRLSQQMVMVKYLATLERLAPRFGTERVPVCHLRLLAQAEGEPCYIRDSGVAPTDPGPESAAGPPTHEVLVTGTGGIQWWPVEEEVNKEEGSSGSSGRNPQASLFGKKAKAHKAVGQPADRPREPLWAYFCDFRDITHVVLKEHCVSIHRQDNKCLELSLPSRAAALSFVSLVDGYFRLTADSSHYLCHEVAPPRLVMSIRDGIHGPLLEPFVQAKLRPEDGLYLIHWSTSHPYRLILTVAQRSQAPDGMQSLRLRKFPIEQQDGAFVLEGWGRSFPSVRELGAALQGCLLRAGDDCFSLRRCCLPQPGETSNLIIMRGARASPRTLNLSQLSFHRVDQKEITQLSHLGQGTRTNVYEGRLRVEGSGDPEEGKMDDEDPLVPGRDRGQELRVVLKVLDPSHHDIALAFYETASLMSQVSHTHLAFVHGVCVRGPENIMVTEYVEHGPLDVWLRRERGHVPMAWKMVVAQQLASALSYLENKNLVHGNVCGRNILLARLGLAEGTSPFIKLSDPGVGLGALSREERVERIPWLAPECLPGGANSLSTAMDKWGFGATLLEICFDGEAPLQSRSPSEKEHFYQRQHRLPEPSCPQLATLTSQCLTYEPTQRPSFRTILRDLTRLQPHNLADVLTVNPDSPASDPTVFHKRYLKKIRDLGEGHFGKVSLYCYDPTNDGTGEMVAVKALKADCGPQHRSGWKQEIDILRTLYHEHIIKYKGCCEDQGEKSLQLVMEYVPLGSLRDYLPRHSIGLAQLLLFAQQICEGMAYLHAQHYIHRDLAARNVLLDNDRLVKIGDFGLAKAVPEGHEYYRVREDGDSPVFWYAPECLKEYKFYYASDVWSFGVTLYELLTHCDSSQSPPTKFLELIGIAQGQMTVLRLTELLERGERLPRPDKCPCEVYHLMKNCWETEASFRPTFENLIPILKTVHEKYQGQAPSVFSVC
assay.details: TYK2 MSD degradation in OCI-LY10 cells
Assay type: cell-based
experimental.parameters: TYK2 degradation in OCI-LY10 cells, 4 to 24 hours incubation
outcome.measure: TYK2 MSD OCI-LY10 Dmax %

Some entries whose results are on file:
{"compound": "CNc1cc(N2CCc3c(CN4CCC(N5CCC6(CC5)CN(C(=O)c5cc(N7CCC(=O)NC7=O)c(Cl)cn5)C6)C(F)(F)C4)cccc32)nn2c(C(=O)N[C@@H]3CC[C@H]3OC)cnc12 (some centres unmarked)", "TYK2 MSD OCI-LY10 Dmax %": "A (A (>90%))"}
{"compound": "CNc1cc(N2CCc3c(-c4ncc(CN5CC6(CCN(C(=O)c7cc(Cl)c(C)c(N8CCC(=O)NC8=O)c7)CC6(F)F)C5)cc4F)cc(F)cc32)nn2c(C(=O)N[C@@H]3C[C@@H]3F)cnc12", "TYK2 MSD OCI-LY10 Dmax %": "A (A (>90%))"}
{"compound": "CNc1cc(N2CCc3c(-c4ncc(CN5CC6(CCN(C(=O)c7cc(N8CCC(=O)NC8=O)c(F)cn7)CC6(F)F)C5)cc4F)cc(F)cc32)nn2c(C(=O)N[C@@H]3C[C@@H]3F)cnc12", "TYK2 MSD OCI-LY10 Dmax %": "B (B (90 to >75%))"}
{"compound": "CNc1cc(N2CC3(CCN(CC4CCN(c5ccc6c(c5)n(C)c(=O)n6C5CCC(=O)NC5=O)CC4)CC3)c3ccccc32)nn2c(C(=O)NC3CC3)cnc12 (centres unmarked)", "TYK2 MSD OCI-LY10 Dmax %": "D (D (<50%))"}

Returns the measured TYK2 MSD OCI-LY10 Dmax % for the input compound. Input: CNc1cc(N2CCc3c(-c4cc(CN5CC6(CCN(C(=O)c7ccc(Cl)c(N8CCC(=O)NC8=O)c7)CC6)C5)ccn4)cccc32)nn2c(C(=O)N[C@@H]3C[C@@H]3F)cnc12
D (D (<50%))

Returns the measured TYK2 MSD OCI-LY10 Dmax % for the input compound. Input: CNc1cc(N2CCc3c(CC4CCN(C5CCC6(CC5)CCN(C(=O)c5ccc(Cl)c(N7CCC(=O)NC7=O)c5)CC6)CC4)cccc32)nn2c(C(=O)N[C@@H]3C[C@@H]3F)cnc12
B (B (90 to >75%))

Returns the measured TYK2 MSD OCI-LY10 Dmax % for the input compound. Input: CNc1cc(N2CCc3c(-c4ccc(CC5CC6(CCN(C(=O)c7cc(F)c(Cl)c(N8CCC(=O)NC8=O)c7)CC6)C5)cn4)cccc32)nn2c(C(=O)N[C@@H]3CC[C@H]3OC)cnc12
A (A (>90%))

Returns the measured TYK2 MSD OCI-LY10 Dmax % for the input compound. Input: CNc1cc(N2CCc3c(-c4ncc(CN5CC6(CCN(C(=O)c7ccc(Cl)c(N8CCC(=O)NC8=O)c7)CC6(F)F)C5)cc4F)cccc32)nn2c(C(=O)N[C@@H]3C[C@@H]3F)cnc12
A (A (>90%))

Returns the measured TYK2 MSD OCI-LY10 Dmax % for the input compound. Input: CNc1cc(N2CCc3c(CN4CCC(N5CCC6(CCN(Cc7ccc(Cl)c(N8CCC(=O)NC8=O)c7)CC6)CC5)C(F)(F)C4)cccc32)nn2c(C(=O)N[C@@H]3C[C@@H]3F)cnc12 (some centres unmarked)
B (B (90 to >75%))

Returns the measured TYK2 MSD OCI-LY10 Dmax % for the input compound. Input: CNc1cc(N2CCc3c(-c4ccc(CN5CC6(CCN(C(=O)c7cncc(N8CCC(=O)NC8=O)c7)CC6)C5)cn4)cccc32)nn2c(C(=O)N[C@@H]3C[C@@H]3F)cnc12
D (D (<50%))

Returns the measured TYK2 MSD OCI-LY10 Dmax % for the input compound. Input: CNc1cc(N2CCc3c(-c4ncc(C(=O)N5CC6(CCN(C(=O)c7cc(C)c(Cl)c(N8CCC(=O)NC8=O)c7)CC6(F)F)C5)cc4F)cccc32)nn2c(C(=O)N[C@@H]3CC[C@H]3OC)cnc12
A (A (>90%))

Returns the measured TYK2 MSD OCI-LY10 Dmax % for the input compound. Input: CNc1cc(N2CCc3c(CN4CCC(N5CC(N6CCN(c7cccc8c(N9CCC(=O)NC9=O)nn(C)c78)CC6)C5)C(F)(F)C4)cccc32)nn2c(C(=O)N[C@@H]3C[C@@H]3F)cnc12 (some centres unmarked)
B (B (90 to >75%))

Returns the measured TYK2 MSD OCI-LY10 Dmax % for the input compound. Input: CNc1cc(N2CCc3c(CN4CC[C@H](N5CCC6(CC5)CN(C(=O)c5cc(Cl)c(C)c(N7CCC(=O)NC7=O)c5)C6)C(F)(F)C4)cccc32)nn2c(C(=O)N[C@@H]3CC[C@H]3OC)cnc12
A (A (>90%))

Returns the measured TYK2 MSD OCI-LY10 Dmax % for the input compound. Input: CNc1cc(N2CCc3c(CN4CCC(N5CCC6(CCN(C(=O)c7cc(C)c(Cl)c(N8CCC(=O)NC8=O)c7)CC6)CC5)C(F)(F)C4)cc(Cl)cc32)nn2c(C(=O)N[C@@H]3CC[C@H]3OC)cnc12 (some centres unmarked)
B (B (90 to >75%))

Returns the measured TYK2 MSD OCI-LY10 Dmax % for the input compound. Input: CNc1cc(N2CCc3c(-c4ccc(CC5CCC6(CC5)CCN(C(=O)c5cc(C)c(Cl)c(N7CCC(=O)NC7=O)c5)CC6)cn4)cccc32)nn2c(C(=O)N[C@@H]3CC[C@H]3OC)cnc12
A (A (>90%))

Returns the measured TYK2 MSD OCI-LY10 Dmax % for the input compound. Input: CNc1cc(N2CCc3c(-c4ccc(CN5CCC6(CCN(C(=O)c7cc(C)c(C)c(N8CCC(=O)NC8=O)c7)CC6)C(F)(F)C5)cn4)cccc32)nn2c(C(=O)N[C@@H]3C[C@@H]3F)cnc12
A (A (>90%))

Returns the measured TYK2 MSD OCI-LY10 Dmax % for the input compound. Input: CNc1cc(N2CCc3c(N4CCN(CCC5CCN(c6ccc7c(c6)n(C)c(=O)n7C6CCC(=O)NC6=O)CC5)CC4)cccc32)nn2c(C(=O)NC3CC3)cnc12 (centres unmarked)
D (D (<50%))

Returns the measured TYK2 MSD OCI-LY10 Dmax % for the input compound. Input: CNc1cc(N2CCc3c(CN4CCC(N5CCC(OCC#Cc6cccc7c6n(C)c(=O)n7C6CCC(=O)NC6=O)CC5)C(F)(F)C4)cccc32)nn2c(C(=O)N[C@@H]3C[C@@H]3F)cnc12 (some centres unmarked)
D (D (<50%))

Returns the measured TYK2 MSD OCI-LY10 Dmax % for the input compound. Input: CNc1cc(N2CCc3c(-c4ccc(CN5CC6(CCN(C(=O)c7ccc(Cl)c(N8CCC(=O)NC8=O)c7)CC6)C5)nc4)cccc32)nn2c(C(=O)N[C@@H]3C[C@@H]3F)cnc12
B (B (90 to >75%))
